Where do these numbers come from? They come from patent US20250263462A1.

Biological target: HLA-A11 on COS7/A11 cells expressing the WT KRAS minigene (23-mer SEQ ID NO: 118) (human, UniProt A*11:01)
Experiment: cell-based or functional assay
quantity-kind: IFN-γ, PBL + Cos7/A11 minigene transfectant (pg/mL)
Supply the numeric figure in pg/mL, leaving out any unit text.

Fill in IFN-γ, PBL + Cos7/A11 minigene transfectant for record TRAV3-3*01/TRBV4*01 murine anti-KRAS G12V TCR (SEQ ID NOs: 133 and 134) (TCR, V domains shown) V domain 1: GEQVEQRPPHLSVREGDSAVITCTYTDPNSYYFFWYKQEPGASLQLLMKVFSSTEINEGQGFTVLLNKKDKRLSLNLTAAHPGDSAAYFCAVSGGTNSAGNKLTFGIGTRVLVRP V domain 2: ETAVFQTPNYHVTQVGNEVSFNCKQTLGHDTMYWYKQDSKKLLKIMFSYNNKQLIVNETVPRRFSPQSSDKAHLNLRIKSVEPEDSAVYLCASSRDWGPAEQFFGPGTRLTVLE 41

Output measured IFN-γ, PBL + Cos7/A11 minigene transfectant for this item: TRAV19*01 + TRBV4*01 TCR chain pair (TCR, V domains shown) V domain 1: GQQVKQSSPSLTVQEGGILILNCDYENDMFDYFAWYKKYPDNSPTLLISVRSNVDKREDGRFTVFLNKSGKHFSLHITASQPEDTAVYLCAAGDSGGSNYKLTFGKGTLLTVTP V domain 2: ETAVFQTPNYHVTQVGNEVSFNCKQTLGHDTMYWYKQDSKKLLKIMFSYNNKQLIVNETVPRRFSPQSSDKAHLNLRIKSVEPEDSAVYLCASSRDWGPAEQFFGPGTRLTVLE 32

Retrieve IFN-γ, PBL + Cos7/A11 minigene transfectant measured for TRAV19*01/TRBV13-1*02 murine anti-KRAS G12V TCR (SEQ ID NOs: 145 and 146) (TCR, V domains shown) V domain 1: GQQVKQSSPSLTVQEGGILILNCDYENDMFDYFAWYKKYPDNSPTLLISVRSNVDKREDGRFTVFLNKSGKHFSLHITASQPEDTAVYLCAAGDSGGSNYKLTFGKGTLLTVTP V domain 2: EAAVTQSPRNKVTVTGGNVTLSCRQTNSHNYMYWYRQDTGHGLRLIHYSYGAGNLQIGDVPDGYKATRTTQEDFFLLLELASPSQTSLYFCASASWGGYAEQFFGPGTRLTVLE and print it. 92

Output IFN-γ, PBL + Cos7/A11 minigene transfectant of TRAV3-3*01 + TRBV13-1*02 TCR chain pair (TCR, V domains shown) V domain 1: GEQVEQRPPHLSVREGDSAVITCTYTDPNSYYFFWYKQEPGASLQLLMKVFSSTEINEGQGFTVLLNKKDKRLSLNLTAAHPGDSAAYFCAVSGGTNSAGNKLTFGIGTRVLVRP V domain 2: EAAVTQSPRNKVTVTGGNVTLSCRQTNSHNYMYWYRQDTGHGLRLIHYSYGAGNLQIGDVPDGYKATRTTQEDFFLLLELASPSQTSLYFCASASWGGYAEQFFGPGTRLTVLE 51
